target_or_test_system: ADAM17 (Homo sapiens, UniProt P78536)
Sequence (P78536 215-824): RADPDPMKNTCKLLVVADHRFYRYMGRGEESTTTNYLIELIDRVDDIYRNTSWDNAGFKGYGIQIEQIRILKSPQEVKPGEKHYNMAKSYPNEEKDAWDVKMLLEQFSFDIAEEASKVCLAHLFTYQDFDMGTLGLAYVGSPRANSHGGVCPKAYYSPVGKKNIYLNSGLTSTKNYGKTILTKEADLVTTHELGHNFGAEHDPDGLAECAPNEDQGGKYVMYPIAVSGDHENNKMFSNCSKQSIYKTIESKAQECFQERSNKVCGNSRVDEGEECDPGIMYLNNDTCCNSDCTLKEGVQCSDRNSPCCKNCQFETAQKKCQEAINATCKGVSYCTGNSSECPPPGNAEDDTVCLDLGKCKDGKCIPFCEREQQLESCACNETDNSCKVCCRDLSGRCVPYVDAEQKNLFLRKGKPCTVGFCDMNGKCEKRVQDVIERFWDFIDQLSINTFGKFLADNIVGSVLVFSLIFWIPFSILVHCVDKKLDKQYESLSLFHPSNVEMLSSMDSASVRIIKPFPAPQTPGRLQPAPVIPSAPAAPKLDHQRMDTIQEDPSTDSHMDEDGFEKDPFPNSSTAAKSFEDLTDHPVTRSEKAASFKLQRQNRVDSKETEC
quantity_measured: pIC50
// returns pIC50 (minus log10 of molar concentration), number only

Request: Requested read-out: pIC50. Entry: `O=C1NC[C@H](Cc2ccccc2)N(C[C@@H]2CCCN2C[C@@H](CC2CCCCC2)N2C[C@H](Cc3ccccc3)N(CCc3ccccc3)C(=O)C2=O)C1=O`
Result: 5.07

* * *

System: Heregulin
test_method_notes: Inhibition of heregulin shedding in A549 cells
Type: cell-based
setup_conditions: Homo sapiens, A549, read-out: Heregulin shedding inhibition
quantity_measured: inhibition at 40 µM (%)
Give the value, in units of %, as a plain number.

[
  {
    "molecule": "O=C1NC[C@@H](Cc2ccc(O)cc2)N(C[C@@H]2CCCN2C[C@@H](Cc2ccc3ccccc3c2)N2C[C@H](Cc3ccc(O)cc3)N(CCC34CC5CC(CC(C5)C3)C4)C(=O)C2=O)C1=O [Compound 17]",
    "target_or_test_system": "Heregulin",
    "measurement": 100
  }
]

Request: Query: inhibition at 40 µM; subject: O=C1NC[C@H](Cc2ccccc2)N(C[C@@H]2CCCN2C[C@H](Cc2ccccc2)N2C[C@H](Cc3ccc(O)cc3)N(CCC34CC5CC(CC(C5)C3)C4)C(=O)C2=O)C1=O [Compound 20]
Result: 0

Request: Can you check O=C1NC[C@H](Cc2ccccc2)N(C[C@@H]2CCCN2C[C@@H](CC2CCCCC2)N2C[C@H](Cc3ccc(O)cc3)N(CCc3ccccc3)C(=O)C2=O)C1=O [Compound 18] next?
Result: 0

Request: Here is the next molecule: CCCC[C@H]1CN([C@@H](Cc2ccc(O)cc2)CN2CCC[C@H]2CN2C(=O)C(=O)NC[C@H]2Cc2ccc3ccccc3c2)C(=O)C(=O)N1CCC12CC3CC(CC(C3)C1)C2 [Compound 16]
Result: 0
